- assay.procedure: RP, Waters ACQUITY UPLC HSS T3, 150 × 2.1 mm, 1.8 µm, 40 °C, 0.28 mL/min, estimated dead time 1.2 min; A: water + 0.1% formic acid; B: methanol + 0.1% formic acid; gradient (min/%B) 0/0 1/0 3/10 18/40 21/100 25.5/100
- setup.conditions: stereoisomer not certain
measured.endpoint: LC retention time (min)

Oc1ccc(C=Cc2cc(O)cc(O)c2)cc1	20.4
COc1cc(-c2[o+]c3cc(O)cc(O)c3cc2OC2OC(COC(=O)C=Cc3ccc(O)cc3)C(O)C(O)C2O)cc(OC)c1O (centres undefined)	20.3
COc1cc(-c2[o+]c3cc(O)cc(O)c3cc2OC2OC(COC(C)=O)C(O)C(O)C2O)ccc1O (centres undefined)	19.5
O=C(O)C1OC(Oc2c(-c3ccc(O)cc3)oc3cc(O)cc(O)c3c2=O)C(O)C(O)C1O (centres undefined)	20.2
COc1cc(-c2[o+]c3cc(O)cc(O)c3cc2OC2OC(COC(C)=O)C(O)C(O)C2O)cc(OC)c1O (centres undefined)	19.6
O=c1oc2c(O)c(O)cc3c(=O)oc4c(O)c(O)cc1c4c23	19.8
O=c1cc2oc(-c3ccc(O)c(O)c3)c(OC3OC(COC(=[OH+])C=Cc4ccc(O)cc4)C(O)C(O)C3O)cc-2c(O)c1 (centres undefined)	20.2
COc1cc(-c2oc3cc(O)cc(O)c3c(=O)c2OC2OC(CO)C(O)C(O)C2O)cc(OC)c1O (centres undefined)	20.4
COc1cc(-c2oc3cc(O)cc(O)c3c(=O)c2OC2OC(CO)C(O)C(O)C2O)ccc1O (centres undefined)	20.3

Data origin: the RepoRT retention time repository (doi:10.1021/acs.jafc.0c00879)
